# Assay Procedure: yeast display, Sf9 membrane polyspecificity reagent, FACS + sequencing; frameworks hold sequencing errors
Property Measured: polyreactivity (PSR sort gate)

Worked cases, answers included:
QVQLLESGGGLVQAGGSLRLSCAASGSIFYPYAMGWHRQAPGKERELVAAISYSGGSTYYADSVKGSFTISRDNAKNTVYLQMNSLKPEDSAVYYCAASVFRGSATYDSWGQGTHVTVSS ... high polyreactivity
QVQLVESGGGLVQAGGSLRLSCAASGSTVKTYAMGWYRQAPGKERELVAAISWSGGSTYYADSVKGRFTISRDNAKNTVYLQMNSLKPEDTAVYYCNAGWGYPSPWFIGEYWGQGTQVTVSS ... low polyreactivity
QVQHVESGGGLVQAGGSLRLSCAASGSIFYVYAMGWYRQAPGKERELVASINKSGGSTYYADSVKGRFTISRDNAKNTVYLQMNSLKPEDTAVYYCAARTGWPRVGFQYPAHVGFDYWGQGTQVTVSS ... low polyreactivity
QVQLVESGGGLVQAGGSLRLSCAASGSTFDANTMGWYRQAPGKERELVAAISSNGGRTYYADSVKGRFTISRDNAKNTVYLLMNSLKPEDTAVYYCAASSYYRYRETYDYWGLGTQVTVSS ... high polyreactivity
QVQLVESGGCLVQAGGSLSLSCAHSGGNFTFYAMVWYTQAPGKERELVATINWSGGSTYYADSVKGRFTISRDNAKITVYLQMNSLKPADTAVYYCNAAWPYKSVEYWGHGTQVTVSS ... low polyreactivity

Req: Supply recorded polyreactivity (PSR sort gate) for "QVQLVESGGGLVQAGGSLRLSCAASGRTSGINAMGWYRQSPGKERELVAAISSGGRTYYADSVKGRFTISRDNAKNTVYLQMNSLKPEDTAVYYCAAVIHWSLYRRMEYWGQGTQVTVSS" here.
Resp: high polyreactivity

Req: Dear colleague, please send me the reported polyreactivity (PSR sort gate) for "QVQLVESGGGLVQAGGSLRLSCAASGSIVGSNAMGWYRQAPGKERELVAAITWSDGSPYYADSVKGRFTISRDNAKNTVYLQMNRLKPEDTAVYVCATDYGYSWYDYWGQGTQVTVSS" when you can.
Resp: low polyreactivity

Req: Return the recorded polyreactivity (PSR sort gate) value; entry: "QVQLVESGGGLVQAGGSLRLSSAASGNIFSDYAMGWNIQAPGKERELVAAISSGGNTNYADSVKGRFTISRDNAKNTVYLQMNSLKPEDTAVYYCAAVYNTTYTLLPEYIYDYWGHGTQVTVSS"
Resp: low polyreactivity

----------
# Assay Procedure: yeast display, Sf9 membrane polyspecificity reagent, FACS + sequencing; frameworks hold sequencing errors
Property Measured: polyreactivity (PSR sort gate)

Consider the worked cases shown below.
QVQLVESGGGLVQAGGSLRLSCAASGLIFARNAMGWYRQAPGKERELVAAISRSGSTNYADSVKGRFTISRDNAKNTVYLQMNSLIPEDTAVYYCAAGPWGTGHYVQGPVYYYRYDYWGQGTQVTVSS ... low polyreactivity
QVQLVESGGGLVQAGGSLRLSCAASGLTFVHYAMGWYRQAPGKQRDLVAAISSGGGSTYYADSVKGRFTISRDNAKNTVYLQMNSLKPEDTAVYYCNVYDHYYSFYSSRDNDYWGQGTQVTVSS ... low polyreactivity
QVQLVESGGGLVQAGGSLRLSCAASGFTIYRNAMGWYRQAPGKERELVARIRRTGGRTYYADSVKGRFTISRDNAKNTVNLQMNSLKPEDTAVYYCAAYPGPGARYYYWGQGTQVTVSS ... high polyreactivity
QVQLLESGGGLVQAGGSLRLSCAASGRNFSRYAMGWYRQAPGKERELVAGITRSGTTTYYADSVKGRFTISRDNAKNTVYLQMNSLKPEDTAVYYCAAPPIRPNLYDYWGQGTQVTVSS ... high polyreactivity
QVQLVESGGGLVQAGGSLRLSCAASGRTFRSYAMGWYRQAPGKERELVAAITSGGSTYYADSVKGRFTISRDNAKNTVYLQMNSLKPEDTAVYYCARGDHVGSAGYDYWGQGTQVTVSS ... low polyreactivity
QVQLVESAGGLVQAGGSLRLSCAASGRNLYQYAMGWYRQAPGKERELVAAITWNGGSTYYADSVKGRFTISRDNAKNTVYLQINSLKPEDTAVYYCAADSVRPWYAYKAHDYWGQGTQVTVSS ... low polyreactivity

Req: Identify polyreactivity (PSR sort gate) associated with the sequence "QVQLVESGGGLVQAGGSLRLSCAASGSTFTWNAMGWYRQAPGKERELVAAISGDGGSTYYADSVKGRFTISRDNAKNTVYLQMNSLKPEDTAVYYCAASSAHIFSYRYNFWGQGTQVTVSS"
Resp: low polyreactivity

Req: Tell me polyreactivity (PSR sort gate) reported for "QVQLVESGGGLVQAGGSLRISCAASGFIFRSYAMGWDRKAPGKERELVAAITRSGGSTYYADSVKGRFTISRDNAKTTVYLQMNSLKPEDTAVYYCATRRYWYYILDYGGQGTQVTVSS"
Resp: high polyreactivity

Req: For "QVQLVESGGGLVQAGGSLRLSCAASGITFDYYDMGWYRTAPGKERELVAAISSDGSTYYADSVKGRFTISRDNAKNTVYLQMNSLKPEDTAVYYCNAVAIEPYFYVVYDIFDYWGQGTQVTVSS" , write its polyreactivity (PSR sort gate).
Resp: low polyreactivity

Req: Report polyreactivity (PSR sort gate) for "QVQLVESGGGLVQAGGSLRLSCAASGIFFGGYYLGWYRQAPATEMELVAGIRSGGSTYYADSVKGRFTISRDNAKNTVYLQMNSLKPEDTAVYYCAKPYYWGDYSQSDSDYWGQGTQVTVSS"
Resp: low polyreactivity
